TARGET OF ASSAY: human GPC3 on cells (human, UniProt P51654 25-554)
METHOD: cell-based or functional assay
REPORTED ENDPOINT: internalization activity to HEPG2 cells, EC50 (pHAb dye fluorescence) (µg/mL)

{"BINDER": "Hu 52H5D3B8-8 (antibody, V domains shown, humanized 52H5D3B8; also called 52H5D3B8 VH3 + VL1) VH: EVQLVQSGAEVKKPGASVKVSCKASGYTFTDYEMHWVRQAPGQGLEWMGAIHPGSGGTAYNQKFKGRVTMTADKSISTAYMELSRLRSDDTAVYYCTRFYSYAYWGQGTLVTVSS VL: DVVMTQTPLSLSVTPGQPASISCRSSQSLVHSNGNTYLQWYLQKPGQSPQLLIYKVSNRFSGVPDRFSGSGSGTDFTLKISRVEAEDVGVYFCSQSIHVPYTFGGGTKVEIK", "READING": 0.78}
{"BINDER": "Hu 52H5D3B8-7/8 CDRs with Y035 FRs (antibody, V domains shown) VH: EVQLVQSGAEVKKPGASVKVSCKASGYTHSDYEMHWVRQAPGQGLEWMGAIHPGSGGTAYNQKFKGRVTITADKSTSTAYMELSSLRSEDTAVYYCARFYSYAYWGQGTLVTVSA VL: DIVMTQTPLSLPVTPGEPASISCRSSQSLVHSNGNTYLQWYLQKPGQSPQLLIYKVSNRFSGVPDRFSGSGSGTDFTLKISRVEAEDVGVYYCSQSIHVPYTFGQGTKLEIKR", "READING": 1.14}
{"BINDER": "Hu 52H5D3B8-7 (antibody, V domains shown, humanized 52H5D3B8; also called 52H5D3B8 VH3 + VL0) VH: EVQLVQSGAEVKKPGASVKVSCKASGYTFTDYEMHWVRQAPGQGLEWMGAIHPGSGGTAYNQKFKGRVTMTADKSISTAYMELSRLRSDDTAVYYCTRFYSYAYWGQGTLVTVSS VL: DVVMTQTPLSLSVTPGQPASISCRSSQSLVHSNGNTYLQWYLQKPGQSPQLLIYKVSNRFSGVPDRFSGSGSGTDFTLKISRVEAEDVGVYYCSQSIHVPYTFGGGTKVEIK", "READING": 0.72}
{"BINDER": "Y035 CDRs with Hu 52H5D3B8-7 FRs (antibody, V domains shown) VH: EVQLVQSGAEVKKPGASVKVSCKASGYTFTDYEMHWVRQAPGQGLEWMGAIHPGSGDTAYNQRFKGRVTMTADKSISTAYMELSRLRSDDTAVYYCTRFYSYAYWGQGTLVTVSS VL: DVVMTQTPLSLSVTPGQPASISCRSSQSLVHSNGNTYLQWYLQKPGQSPQLLIYKVSNRFSGVPDRFSGSGSGTDFTLKISRVEAEDVGVYYCSQSIYVPYTFGGGTKVEIK", "READING": 1.11}
